Origin of measurements: ChEMBL document CHEMBL1201862

Tested on: SN12C
Test: NCI tumour cell line growth inhibition, 48 h
Activity calls are given as the source filed them. Rule as the data show it: active = GI50 up to about 1.1 µM and inactive = higher.
Field: GI50. Provide a value for each of the compounds that follow.

Log: SN12C, compound CCCC(=O)OC1=C(c2ccccc2)Sc2ccccc2-n2cccc21 , GI50 = > 10 µM (inactive)

Log: SN12C, compound O=C1C(c2ccccc2)=[N+]([O-])c2cc([N+](=O)[O-])ccc21 , GI50 = 25.6 µM (inactive)

Log: SN12C, compound CCCC(=O)Oc1cc(OC(=O)CCC)c2c(C)cc(=O)oc2c1 , GI50 = > 100 µM (inactive)

Log: SN12C, compound COc1cc2c[n+](C)c3c4cc(OC)c(OC)cc4c(OC)cc3c2cc1OC , GI50 = 0.188 µM (active)

Log: SN12C, compound Oc1ccc(CNCc2ccccc2)c2cccnc12 , GI50 = 0.0601 µM (active)

Log: SN12C, compound O=[N+]([O-])/C=C/c1cc2ccc3ccccc3c2[nH]1 , GI50 = 1.86 µM (inactive)

Log: SN12C, compound Cc1cn([C@H]2C[C@H](N=[N+]=[N-])[C@@H](CO)O2)c(=O)[nH]c1=O [ZIDOVUDINE] , GI50 = > 100 µM (inactive)

Log: SN12C, compound c1ccc(-c2ccc(/N=N/N3CCCC3)cc2)cc1 , GI50 = > 100 µM (inactive)

Log: SN12C, compound Cc1c(-c2nc(N)c(C#N)c(N)c2C#N)c(=O)oc2ccccc12 , GI50 = > 100 µM (inactive)

----------
Field: GI50. Provide a value for each of the compounds that follow.
Tested on: SK-MEL-5
Assay: NCI tumour cell line growth inhibition, 48 h
Active and inactive are the calls of the source. Rule as the data show it: active = GI50 up to about 1.1 µM and inactive = higher.

Data point: C=C1C(OC)=C(OC)C(=O)c2[nH]c3c(OC)cc([N+](=O)[O-])cc3c21 ; GI50 = > 100 µM (inactive)

Data point: CCC1CCC2c3c([nH]c4ccc(C)cc34)C3C(=O)N(N(C)C)C(=O)C3C2C1 (centres undefined) ; GI50 = 12.8 µM (inactive)

Data point: O=C1Nc2cc(Cl)ccc2C(=O)N2CCC[C@@H]12 ; GI50 = > 100 µM (inactive)

Data point: CCCCCCCCCC(=O)OCC1(CO)C/C(=C/CC(C(C)C)C(C)C)C(=O)O1 (centres undefined) ; GI50 = 25.7 µM (inactive)

Data point: O=C1Nc2cccc(C(F)(F)F)c2/C1=N/Nc1ccccc1[N+](=O)[O-] ; GI50 = 21.4 µM (inactive)

Data point: COc1ccc2nc3cc(Cl)ccc3c(SCC(=O)Nc3ccccc3-c3ccccc3NC(=O)CSc3c4ccc(Cl)cc4nc4ccc(OC)cc34)c2c1 ; GI50 = > 100 µM (inactive)

Data point: Cc1cccc(/N=N/c2ccc(O)c(CN(C)C)c2)c1 ; GI50 = 14 µM (inactive)

Data point: COc1ccc(C(=O)N2CCc3c([nH]c4ccccc34)C2C(=O)O)o1 (centres undefined) ; GI50 = > 10 µM (inactive)

Data point: N#CC(c1nc2ccccc2nc1Cl)S(=O)(=O)c1ccccc1 (centres undefined) ; GI50 = > 100 µM (inactive)

----------
Tested on: A498
Assay: NCI tumour cell line growth inhibition, 48 h
The source made the active and inactive calls. Rule as the data show it: active = GI50 up to about 1.1 µM and inactive = higher.
Your response should consist of one outcome taken from active, inactive

Field: outcome | Entry: Nc1n[n+](-c2ccccc2)no1
inactive

Field: outcome | Entry: O=[N+]([O-])c1ccc(C2=Nn3c(nnc3-c3ccccc3)SC2)o1
inactive

Field: outcome | Entry: CNc1nnc(CCCCCCCCc2nnc(NC)o2)o1
inactive

Field: outcome | Entry: O=C1c2c(O)cccc2C(C(=O)CCCCC(=O)C2c3cccc(O)c3C(=O)c3c(O)cccc32)c2cccc(O)c21
inactive

Field: outcome | Entry: CC(=O)NC1=C(NC(C)(C)C)C(=O)c2ccccc2C1=O
inactive

Field: outcome | Entry: COC(=O)C1=C(C(=O)OC)SC(=C2SCSC3=C2SC(C(=O)OC)=C(C(=O)OC)C32SC3=C(CCCC3)S2)S1
inactive

Field: outcome | Entry: COc1ccc(C2c3cc4c(c(OC)c3CC3OCC(=O)C32)OCO4)cc1OC (stereo not drawn)
active

Field: outcome | Entry: COc1ccc(/C(=N/O)C(c2ccc(OC)cc2)C2C(=O)Oc3ccccc32)cc1 (stereo not drawn)
inactive

Field: outcome | Entry: CC1OC(OC2C(CO)OC(O[C@H]3CC[C@@]4(C)C(=CC[C@H]5[C@@H]6C[C@@H]7O[C@]8(CC[C@@H](C)CN8)[C@@H](C)[C@@H]7[C@@]6(C)CC[C@@H]54)C3)C(O)C2O)C(O)C(O)C1O (stereo partly drawn)
inactive

Field: outcome | Entry: CC[C@@]1(O)C[C@H](OC2CC(N(C)C)C(O)C(C)O2)c2c(O)c3c(c(O)c2[C@H]1OC1CC(N(C)C)C(O)C(C)O1)C(=O)c1cccc(O)c1C3=O (stereo partly drawn)
active

Field: outcome | Entry: O=C(Cc1ccc(O)c(O)c1)NCc1c[nH]c2ccccc12
inactive

Field: outcome | Entry: Cc1cn([C@H]2C[C@H](N=[N+]=[N-])[C@@H](CO)O2)c(=O)[nH]c1=O
inactive

Field: outcome | Entry: COc1cc([N+](=O)[O-])ccc1NC(=O)C(F)(F)F
inactive

Field: outcome | Entry: C=C1C(=O)OC2/C=C(\C)CC(O)/C=C(/CO)CC(OC(=O)/C(C)=C/C)C12 (stereo not drawn)
inactive

Field: outcome | Entry: NC(=O)c1c(-c2ccccc2)c(-c2ccccc2)cc2c(=O)c3ccccc3[nH]c12
inactive

Field: outcome | Entry: CC1(C)C2CCC(N)(C2)C1N (stereo not drawn)
inactive

Field: outcome | Entry: O=C1NC(=O)c2c1n(Cc1ccccc1)c(=O)n2Cc1ccccc1
inactive

Field: outcome | Entry: COc1ccc(-c2c3ccccc3c(-c3ccc(OC)cc3)c3ccccc23)cc1
inactive

Field: outcome | Entry: O=C1NC(=S)NC(=O)C1=Cc1ccc[nH]1
inactive

Field: outcome | Entry: Oc1ccc(CNCc2ccccc2)c2cccnc12
active

Field: outcome | Entry: COC(=O)C(=NNc1ccccc1[N+](=O)[O-])C(=O)OC
inactive

Field: outcome | Entry: CCOc1c(OC)cc(CNNc2nccs2)cc1OC
inactive

Field: outcome | Entry: C=C(C[N+](C)(C)C)N/N=C/c1oc(-c2ccc(OC)c(OC)c2)c(-c2ccc(OC)c(OC)c2)c1[N+](=O)[O-]
inactive
